Test: in vitro
Settings: human
REPORTED_PROPERTY: CC50

For `C/C=C(\C)C(=O)O[C@@H]1[C@@H]2C=C3[C@@H]4CC(=O)O[C@@H](c5ccoc5)[C@]4(C)CC[C@@H]3[C@]3(C)[C@@H](CC(=O)OC)[C@]1(C)CO[C@]23O` , what is its reported CC50?
> 100 µM
